Data origin, for the record: PubChem BioAssay (NCATS)

test system: CP305; experiment: qHTS profiling for inhibitors of Plasmodium falciparum proliferation (AID 504749); note: nearly all actives have a fitted effect of over 60% in size; details: P. falciparum in erythrocytes, SYBR Green DNA, 72 h; series mostly up to 28.7 µM
Records with an inconclusive call do not appear. The source made the active and inactive calls. Calls come from the whole dose curve; as a rule, active = well fitted inhibition curve with a large enough effect; inconclusive = small, poorly fitted or top-dose-only effect; inactive = flat fitted curve, though single readings scatter.
Possible outcomes: true for active, false for inactive

compound	assigned-category
CC(COc1ccccc1)N(CCCl)Cc1ccccc1 (stereo not drawn)	false
CC[N+](CC)(CC)CCOc1cccc(OCC[N+](CC)(CC)CC)c1OCC[N+](CC)(CC)CC	false
COc1ccc2[nH]cc(CCNC(C)=O)c2c1	false
NS(=O)(=O)c1cc2c(cc1Cl)NCNS2(=O)=O	false
COc1ccccc1N1CCN(CC(O)COc2cccc3ccccc23)CC1 (stereo not drawn)	false
Nc1nc2c(ncn2COC(CO)CO)c(=O)[nH]1	false
COc1ccccc1OCCNCC(O)COc1cccc2[nH]c3ccccc3c12 (stereo not drawn)	false
CCC1(c2ccccc2)C(=O)NCNC1=O	false
Cc1cc(C(C)(C)C)cc(C)c1CC1=NCCN1	false
CCCNCC(O)COc1ccccc1C(=O)CCc1ccccc1 (stereo not drawn)	true
Nc1nnc(-c2cccc(Cl)c2Cl)c(N)n1	false
C[C@](N)(Cc1ccc(O)c(O)c1)C(=O)O	false
Cc1ccc(C(=O)Nc2ccc(S(=O)(=O)O)c3cc(S(=O)(=O)O)cc(S(=O)(=O)O)c23)cc1NC(=O)c1cccc(NC(=O)Nc2cccc(C(=O)Nc3cc(C(=O)Nc4ccc(S(=O)(=O)O)c5cc(S(=O)(=O)O)cc(S(=O)(=O)O)c45)ccc3C)c2)c1	false
COC(=O)Nc1nc2ccc(C(=O)c3cccs3)cc2[nH]1	false
CC12CC3CC(C)(C1)CC(N)(C3)C2	false
Cc1cnc(C(=O)NCCc2ccc(S(=O)(=O)NC(=O)NC3CCCCC3)cc2)cn1	false
Clc1ccc2nsnc2c1NC1=NCCN1	false
O=C(Nc1ccc([N+](=O)[O-])cc1Cl)c1cc(Cl)ccc1O	true
CC(CCc1ccc(O)cc1)NCCc1ccc(O)c(O)c1 (stereo not drawn)	false
CN(C)C(=N)N=C(N)N	false
CN1C(C(=O)Nc2ccccn2)=C(O)c2ccccc2S1(=O)=O	false
CS(=O)(=O)CCNCc1ccc(-c2ccc3ncnc(Nc4ccc(OCc5cccc(F)c5)c(Cl)c4)c3c2)o1	false
CN1CCC(=C2c3ccccc3C=Cc3ccccc32)CC1	false
